Values compiled from paper PMC5735979.

experiment: Pharmacokinetics study after single oral dose of HP; type: in vivo, C57BL/6 mice; conditions: male, C57BL/6, mouse, in vivo; plasma, single oral dose of 50 mg/kg HP, mice, n = 5
parameter: AUC(0-t) (µM·h)
Please give a number only; it is taken to be in µM·h.

GET /values?readout=AUC(0-t)&item= `O=c1ccc2ccc(O[C@@H]3O[C@H](CO)[C@@H](O)[C@H](O)[C@H]3O)cc2o1` 23.3

---

experiment: Pharmacokinetics study after single oral dose of HP; type: in vivo, C57BL/6 mice; conditions: male, C57BL/6, mouse, in vivo; 8 h after single oral dose of 50 mg/kg HP, mice, mean ± SD, n = 5; read-out: Blood drug concentration
parameter: concentration at 8 h (nM)
Respond numerically; units are nM and should not be typed.

State the recorded concentration at 8 h for this entry: `O=c1ccc2ccc(O[C@@H]3O[C@H](CO)[C@@H](O)[C@H](O)[C@H]3O)cc2o1` 170
